Test system: tubulin
Test Description: Induction/enhancement of tubulin assembly (Lin, et al., 1996)
Format: biochemical
Study Conditions: 10 μM tubulin, 0.4M monosodium glutamate, 30 min at room temperature; Table 2; read-out: induction of tubulin assembly (EC50, μM ± SD)
Parameter Measured: EC50 (µM)
Give the number; µM is assumed, so skip it.

Query: Supply reported EC50 belonging to this compound: C/C(=C\c1csc(C)n1)[C@@H]1C[C@@H]2O[C@]2(C)CCC[C@H](C)[C@H](O)[C@@H](C)C(=O)C(C)(C)[C@@H](O)CC(=O)N1 [Ixab, ixabepilone, reference compound]
Response: 4.5

Query: Complete the entry with EC50 for C/C(=C\c1ccn(-c2ccc(N)c(F)c2)n1)[C@@H]1C[C@@H]2O[C@]2(C)CCC[C@H](C)[C@H](O)[C@@H](C)C(=O)C(C)(C)[C@@H](O)CC(=O)O1 [Compound 12]
Response: 7.8
